# ASSAY TARGET: GBA2 (Homo sapiens)
# Sequence (Q9HCG7 whole entry): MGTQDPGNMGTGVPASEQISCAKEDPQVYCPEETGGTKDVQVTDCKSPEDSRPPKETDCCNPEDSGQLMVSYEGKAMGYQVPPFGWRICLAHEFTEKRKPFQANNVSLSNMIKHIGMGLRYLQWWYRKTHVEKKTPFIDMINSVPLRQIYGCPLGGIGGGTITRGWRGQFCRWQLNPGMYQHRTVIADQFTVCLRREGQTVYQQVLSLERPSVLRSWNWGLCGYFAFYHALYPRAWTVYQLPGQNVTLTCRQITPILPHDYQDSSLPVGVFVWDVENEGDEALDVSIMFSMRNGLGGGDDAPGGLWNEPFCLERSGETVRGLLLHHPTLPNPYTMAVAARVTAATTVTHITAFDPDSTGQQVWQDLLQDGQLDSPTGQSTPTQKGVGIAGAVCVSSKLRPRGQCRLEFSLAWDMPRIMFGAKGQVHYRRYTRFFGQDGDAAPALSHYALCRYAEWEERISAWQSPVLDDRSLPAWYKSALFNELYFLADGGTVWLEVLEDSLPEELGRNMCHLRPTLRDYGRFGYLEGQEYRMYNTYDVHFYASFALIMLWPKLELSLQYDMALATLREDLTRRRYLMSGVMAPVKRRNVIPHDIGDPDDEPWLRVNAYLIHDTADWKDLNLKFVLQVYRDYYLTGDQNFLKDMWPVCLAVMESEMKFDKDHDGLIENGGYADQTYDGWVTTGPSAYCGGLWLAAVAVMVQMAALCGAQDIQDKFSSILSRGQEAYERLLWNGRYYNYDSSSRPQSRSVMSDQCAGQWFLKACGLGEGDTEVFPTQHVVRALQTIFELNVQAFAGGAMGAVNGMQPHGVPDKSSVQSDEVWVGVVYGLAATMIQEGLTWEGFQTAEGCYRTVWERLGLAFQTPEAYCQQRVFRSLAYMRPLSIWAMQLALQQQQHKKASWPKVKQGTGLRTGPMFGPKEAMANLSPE
# METHOD SUMMARY: 4MU fluorogenic substrate assay for apparent IC50, GBA2
# Type: biochemical
# Set-up: expressed in transfected cells; host or cells: HEK293T GBA1/GBA2 KO (CRISPR/Cas9), GBA2 overexpressed
# TEST CONDITIONS: Apparent IC50 GBA2, GBA1/GBA2 KO GBA2 OE HEK293T cell lysate; 30 min pre-incubation; 4MU-β-D-Glc; pH 5.8; n = 3 for β-D-Araf, n = 1 for α-L-Araf and β-L-Araf
PROPERTY NAME: IC50 (µM)
Answers are plain numbers, in µM.

Item O=C(CCCC[C@@H]1SC[C@@H]2NC(=O)N[C@@H]21)NCc1cn(CCCCCCCCN2[C@@H]3[C@H](CO)[C@@H](O)[C@H](O)[C@@H]32)nn1 (stereo partly shown) [ABP 6] ; assay system GBA2 (Homo sapiens); IC50 reported as 8.48

----------
# ASSAY TARGET: rhGBA1 (imiglucerase) (Homo sapiens, UniProt P04062, R534H)
# Construct: purchased Sanofi Genzyme (gift) Cerezyme®
# Sequence (P04062 40-536 R534H): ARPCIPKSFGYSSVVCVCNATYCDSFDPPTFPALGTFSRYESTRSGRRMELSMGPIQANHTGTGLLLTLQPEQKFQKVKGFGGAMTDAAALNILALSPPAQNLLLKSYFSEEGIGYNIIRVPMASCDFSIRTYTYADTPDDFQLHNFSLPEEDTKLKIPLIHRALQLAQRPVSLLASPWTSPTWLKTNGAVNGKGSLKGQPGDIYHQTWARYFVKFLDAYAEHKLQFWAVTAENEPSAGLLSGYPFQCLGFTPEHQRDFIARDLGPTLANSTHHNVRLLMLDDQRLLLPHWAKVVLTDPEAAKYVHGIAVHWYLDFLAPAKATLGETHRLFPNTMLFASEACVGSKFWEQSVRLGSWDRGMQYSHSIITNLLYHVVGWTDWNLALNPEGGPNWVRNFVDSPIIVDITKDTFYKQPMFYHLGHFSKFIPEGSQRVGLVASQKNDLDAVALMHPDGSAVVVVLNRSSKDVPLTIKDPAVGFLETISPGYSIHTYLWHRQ
# METHOD SUMMARY: 4MU fluorogenic substrate assay for apparent IC50, rhGBA1
# Format: biochemical
# TEST CONDITIONS: imiglucerase (Cerezyme); 30 min pre-incubation; 4MU-β-D-Glc; pH 5.2; n = 3 for β-D-Araf, n = 1 for α-L-Araf and β-L-Araf; read-out: Apparent IC50 rhGBA1
PROPERTY NAME: pIC50
One number for each entry, as −log10 of the molar value.

| MOLECULE | pIC50 |
| --- | --- |
| CC1=CC(C)=[N+]2C1=C(CCCCc1cn(CCCCCCCCN3[C@@H]4[C@H](CO)[C@@H](O)[C@H](O)[C@@H]43)nn1)c1c(C)cc(C)n1[B-]2(F)F (some centres unmarked) | 5.37 |

List pIC50 for every entry below, keeping the order given.
1. O=C(CCCC[C@@H]1SC[C@@H]2NC(=O)N[C@@H]21)NCc1cn(CCCCCCCCN2[C@@H]3[C@H](CO)[C@@H](O)[C@H](O)[C@@H]32)nn1 (some centres unmarked)
2. COc1ccc(C2=[N+]3C(=C(CCCCc4cn(CCCCCCCCN5[C@@H]6[C@H](CO)[C@@H](O)[C@H](O)[C@@H]65)nn4)c4ccc(-c5ccc(OC)cc5)n4[B-]3(F)F)C=C2)cc1 (some centres unmarked)
3. [N-]=[N+]=NCCCCCCCCN1[C@@H]2[C@H](CO)[C@@H](O)[C@H](O)[C@@H]21 (some centres unmarked)

Key:
4.97
5.75
5.56

----------
For each entry below, report its IC50 value.
# ASSAY TARGET: GBA3 (Homo sapiens, UniProt Q9H227)
# Construct: expressed in transfected cells; host or cells: HEK293T GBA1/GBA2 KO, GBA3 overexpressed
# Sequence (Q9H227 1-469): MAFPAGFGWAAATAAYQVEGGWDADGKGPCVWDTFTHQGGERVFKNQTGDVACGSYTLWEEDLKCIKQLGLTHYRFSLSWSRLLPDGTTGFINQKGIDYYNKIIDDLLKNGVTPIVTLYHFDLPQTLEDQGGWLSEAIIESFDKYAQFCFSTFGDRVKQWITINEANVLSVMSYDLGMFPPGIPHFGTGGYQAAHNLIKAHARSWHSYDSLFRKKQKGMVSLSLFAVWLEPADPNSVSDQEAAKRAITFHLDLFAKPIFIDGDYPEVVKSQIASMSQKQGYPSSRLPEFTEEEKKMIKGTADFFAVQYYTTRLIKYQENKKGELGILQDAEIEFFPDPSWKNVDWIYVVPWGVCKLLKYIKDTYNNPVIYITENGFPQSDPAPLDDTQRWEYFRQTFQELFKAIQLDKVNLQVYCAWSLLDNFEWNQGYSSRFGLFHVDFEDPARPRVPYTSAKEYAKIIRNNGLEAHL
# METHOD SUMMARY: 4MU fluorogenic substrate assay for apparent IC50, GBA3
# Format: biochemical
# TEST CONDITIONS: GBA1/GBA2 KO GBA3 OE HEK293T cell lysate; 30 min pre-incubation; 4MU-β-D-Glc; pH 6.0; n = 3 for β-D-Araf, n = 1 for α-L-Araf and β-L-Araf

Some solved cases for reference:
| COMPOUND | IC50 |
| --- | --- |
| OC[C@@H]1[C@@H](O)[C@H](O)[C@@H]2N[C@H]12 | > 50 µM |
| COc1ccc(C2=[N+]3C(=C(CCCCc4cn(CCCCCCCCN5[C@@H]6[C@H](CO)[C@@H](O)[C@H](O)[C@@H]65)nn4)c4ccc(-c5ccc(OC)cc5)n4[B-]3(F)F)C=C2)cc1 (stereo partly drawn) | > 10 µM |

# ---- query compound ----
IC50 measured on CC1=CC(C)=[N+]2C1=C(CCCCc1cn(CCCCCCCCN3[C@@H]4[C@H](CO)[C@@H](O)[C@H](O)[C@@H]43)nn1)c1c(C)cc(C)n1[B-]2(F)F (stereo partly drawn) = > 10 µM
